target: human GPR40 receptor (Homo sapiens, UniProt O14842); test: Cytosolic calcium measurement using the FLIPR system; format: cell-based; conditions: FLIPR cytosolic Ca2+ peak height; 1321N1 cells stably expressing human GPR40; read-out: EC50 values on GPR40 determined as described in (A)
Sequence (O14842 whole entry): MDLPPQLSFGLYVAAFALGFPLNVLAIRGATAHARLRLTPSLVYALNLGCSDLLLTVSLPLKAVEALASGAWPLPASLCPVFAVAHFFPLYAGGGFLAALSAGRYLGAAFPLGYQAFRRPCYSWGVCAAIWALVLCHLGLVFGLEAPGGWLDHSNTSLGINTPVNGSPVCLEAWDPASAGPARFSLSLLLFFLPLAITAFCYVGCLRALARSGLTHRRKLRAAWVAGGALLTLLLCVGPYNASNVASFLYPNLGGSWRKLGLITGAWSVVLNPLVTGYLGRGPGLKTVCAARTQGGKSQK
pEC50: −log10 of the molar value.
Outcome: Criterion met for pEC50 of at least 6; Criterion not met for anything lower.

COMPOUND: COC(c1cccc2c1CCC2Oc1ccc2c(c1)OCC2CC(=O)O)C(C)(C)C (centres unmarked) [Example 13]
ASSIGNED_CATEGORY: Criterion met

Exam item: Confirm if pEC50 reported for the compound COc1ccc(-c2cccc3c2CC[C@H]3Oc2ccc3c(c2)OCC3CC(=O)O)cc1 (some centres unmarked) [Example 10] is 6 or above.
Marked response: Criterion met

Exam item: Confirm if pEC50 reported for the compound CC1(C)CCCC1c1cccc2c1CC[C@H]2Oc1ccc2c(c1)OCC2CC(=O)O (some centres unmarked) [Example 16] is 6 or above.
Marked response: Criterion not met

Exam item: Confirm if pEC50 reported for the compound O=C(O)CC1COc2cc(O[C@@H]3CCc4c(C5CCOCC5)cccc43)ccc21 (some centres unmarked) [Example 12] is 6 or above.
Marked response: Criterion met

Exam item: Confirm if pEC50 reported for the compound CC1(C)CCC=C1c1cccc2c1CC[C@H]2Oc1ccc2c(c1)OCC2CC(=O)O (mixture of isomers) [Example 15] is 6 or above.
Marked response: Criterion not met

Exam item: Confirm if pEC50 reported for the compound O=C(O)CC1COc2cc(OC3CCc4c3cccc4C(F)(F)F)ccc21 (mixture of isomers) [Example 1] is 6 or above.
Marked response: Criterion met

Exam item: Confirm if pEC50 reported for the compound COC(c1cccc2c1CCC2Oc1ccc2c(c1)OCC2CC(=O)O)C(F)F (centres unmarked) [Example 11] is 6 or above.
Marked response: Criterion met

---

target: UniProt:O14842; assay: IP1 accumulation measurements using the IPOne assay system; format: cell-based; conditions: IP1 accumulation (IPOne HTRF), 1 hour stimulation; 1321N1 cells stably expressing human GPR40; read-out: EC50 values on GPR40 determined as described in (B)
Label t when EC50 < 400 nM; otherwise f.

Answered examples (2):
COMPOUND: O=C(O)CC1COc2cc(O[C@@H]3CCc4c(C5=CCOCC5)cccc43)ccc21 (stereo partly shown) [Example 8]
MEASURED_ON: UniProt:O14842
ASSIGNED_CATEGORY: f
--
COMPOUND: COc1ccc(C(F)(F)F)c(-c2cccc3c2CC[C@H]3Oc2ccc3c(c2)OC[C@H]3CC(=O)O)n1 [Example 91]
MEASURED_ON: UniProt:O14842
ASSIGNED_CATEGORY: t

Exam item: Is EC50 of Cc1ccc(O)cc1-c1cccc2c1CC[C@H]2Oc1ccc2c(c1)OC[C@H]2CC(=O)O [Example 72] strictly below 400 nM?
Marked response: t

Exam item: Is EC50 of O=C(O)C[C@@H]1COc2cc(O[C@@H]3CCc4c3ccc(F)c4F)ccc21 [Example 37] strictly below 400 nM?
Marked response: t

Exam item: Is EC50 of Cn1cc(-c2cccc3c2CC[C@H]3Oc2ccc3c(c2)OCC3CC(=O)O)cn1 (stereo partly shown) [Example 7] strictly below 400 nM?
Marked response: f

Exam item: Is EC50 of O=C(O)C[C@@H]1COc2cc(O[C@@H]3CCc4c(C5CC5)cccc43)ccc21 [Example 31] strictly below 400 nM?
Marked response: t

---

Target: human GPR40 receptor (Homo sapiens, UniProt O14842)
Assay: Cytosolic calcium measurement using the FLIPR system
Assay type: cell-based
Conditions: FLIPR cytosolic Ca2+ peak height; 1321N1 cells stably expressing human GPR40; read-out: EC50 values on GPR40 determined as described in (A)
Experimental: (A) Cytosolic calcium measurement using the FLIPR system—1321N1 cells stably expressing human GPR40 receptor (Euroscreen, Belgium) were seeded 24 h before the assay in black clear-bottom collagen-coated 384-well plates in culture medium containing 10% FCS, 1% Na-Pyruvate and 400 μg/ml G418. […] Changes in cytosolic Ca^2+ concentration upon compound addition were monitored using a FLIPR Tetra device (Fluorescence Imaging Plate Reader; MDS Analytical technologies). […]
READOUT_KIND: pEC50
Give bare numbers, as −log10 of the molar value.

# per-item lookup of pEC50; items listed below
1. COC1(c2cccc3c2CC[C@H]3Oc2ccc3c(c2)OC[C@H]3CC(=O)O)CCC1 [Example 18]
2. O=C(O)C[C@H]1COc2cc(O[C@H]3CCc4c3cccc4C(F)(F)F)ccc21 (single isomer, unassigned) [Example 2]
3. O=C(O)C[C@@H]1COc2cc(O[C@@H]3CCc4c(OC(F)F)cccc43)ccc21 [Example 17]
4. O=C(O)CC1COc2cc(O[C@@H]3CCc4c(Br)cccc43)ccc21 (mixture of isomers) [Example 6]
5. O=C(O)CC1COc2cc(O[C@@H]3CCc4c(C5=CCOCC5)cccc43)ccc21 (stereo partly drawn) [Example 8]
6. COC(c1cccc2c1CCC2Oc1ccc2c(c1)OC[C@H]2CC(=O)O)C1CCC1 (stereo partly drawn) [Example 14]
7. O=C(O)C[C@H]1COc2cc(O[C@H]3CCc4c3cccc4C(F)(F)F)ccc21 (single isomer, unassigned) [Example 5]

Marked response:
1. 7.68
2. 7.57
3. 6.95
4. 7.31
5. 6.51
6. 6.44
7. 5.64

# per-item lookup of pEC50; items listed below
1. O=C(O)C[C@H]1COc2cc(O[C@H]3CCc4c3cccc4C(F)(F)F)ccc21 (stereo in doubt) [3/4]
2. Cn1ccc(-c2cccc3c2CC[C@H]3Oc2ccc3c(c2)OCC3CC(=O)O)cc1=O (stereo partly drawn) [Example 9]

Marked response:
6.73
5.49

---

biological target: human GPR40 receptor (Homo sapiens); assay: IP1 accumulation measurements using the IPOne assay system; type: cell-based; conditions: IP1 accumulation (IPOne HTRF), 1 hour stimulation; 1321N1 cells stably expressing human GPR40; read-out: EC50 values on GPR40 determined as described in (B)
READOUT_KIND: EC50 (nM)
Numbers only, in nM.

Before answering, review these 6 worked examples.
COMPOUND: Cc1c(O[C@@H]2CCc3c2cccc3C(F)(F)F)ccc2c1OCC2CC(=O)O (mixture of isomers)
READOUT_KIND: EC50
RECORDED_NUMBER: 4250
--
COMPOUND: Cc1cccnc1-c1cccc2c1CC[C@H]2Oc1ccc2c(c1)OC[C@H]2CC(=O)O
READOUT_KIND: EC50
RECORDED_NUMBER: 534
--
COMPOUND: CC(C)c1cccc2c1CC[C@H]2Oc1ccc2c(c1)OC[C@H]2CC(=O)O
READOUT_KIND: EC50
RECORDED_NUMBER: 98
--
COMPOUND: CC(O)(c1cccc2c1CC[C@H]2Oc1ccc2c(c1)OC[C@H]2CC(=O)O)C(F)(F)F (some centres unmarked)
READOUT_KIND: EC50
RECORDED_NUMBER: 428
--
COMPOUND: COc1cc(C)c(-c2cccc3c2CC[C@H]3Oc2ccc3c(c2)OC[C@H]3CC(=O)O)c(C)n1
READOUT_KIND: EC50
RECORDED_NUMBER: 213
--
COMPOUND: CC(C)c1ccccc1-c1cccc2c1CC[C@H]2Oc1ccc2c(c1)OC[C@H]2CC(=O)O
READOUT_KIND: EC50
RECORDED_NUMBER: 4

Kindly note the recorded EC50 for CC(C)(C)Cc1cccc2c1CC[C@H]2Oc1ccc2c(c1)OC[C@H]2CC(=O)O , which is 13

---

molecular target: human GPR40 receptor (Homo sapiens, UniProt O14842); assay: IP1 accumulation measurements using the IPOne assay system; format: cell-based; details: IP1 accumulation (IPOne HTRF), 1 hour stimulation; 1321N1 cells stably expressing human GPR40; read-out: EC50 values on GPR40 determined as described in (B)
READOUT_KIND: pEC50
One number for each entry, as −log10 of the molar value.

Before answering, review these 3 worked examples.
COMPOUND: Cn1ccnc1-c1cccc2c1CC[C@H]2Oc1ccc2c(c1)OC[C@H]2CC(=O)O [Example 57]
RECORDED_NUMBER: 5.05
//
COMPOUND: Cc1ccnc(C)c1-c1cccc2c1CC[C@H]2Oc1ccc2c(c1)OC[C@H]2CC(=O)O [Example 93]
RECORDED_NUMBER: 7.21
//
COMPOUND: COC(c1cccc2c1CCC2Oc1ccc2c(c1)OC[C@H]2CC(=O)O)C1CCC1 (stereo partly shown) [Example 14]
RECORDED_NUMBER: 6.90

# per-item lookup of pEC50; items listed below
1. CC(C)(C)c1ccc2c(c1)CC[C@H]2Oc1ccc2c(c1)OC[C@H]2CC(=O)O [Example 95]
2. O=C(O)C[C@H]1COc2cc(O[C@H]3CCc4c3cccc4C(F)(F)F)ccc21 (single isomer, unassigned) [Example 5]
3. CC1(C)CCC[C@@H]1c1cccc2c1CC[C@H]2Oc1ccc2c(c1)OC[C@H]2CC(=O)O (single isomer, unassigned) [Example 75]

Marked response:
7.00
5.05
7.41

Kindly note the recorded pEC50 for O=C(O)C[C@@H]1COc2cc(O[C@@H]3CCc4c(C(F)(F)F)ccc(F)c43)ccc21 [Example 24] , which is 7.46

Value source: patent US20120302566A1
